biological target: Human immunodeficiency virus type 1 protease (Human immunodeficiency virus 1, UniProt Q72874); test: Inhibition of purified recombinant HIV-1 protease in a fluorogenic assay
readoutName: pIC50
// pIC50 here means minus log10 of the molar concentration (mol/L)

chemicalsmiles=CC(C)[C@H](NS(=O)(=O)CCc1ccncc1)C(=O)N[C@@H](Cc1ccccc1)[C@H](O)[C@H](O)[C@H](Cc1ccccc1)NC(=O)[C@H](NS(=O)(=O)CCc1ccncc1)C(C)C readoutname=pIC50 valueobserved=7.89

Okay, next one:
Entry CC(C)[C@H](NS(=O)(=O)CCc1ccccn1)C(=O)N[C@@H](Cc1ccccc1)[C@H](O)[C@H](O)[C@H](Cc1ccccc1)NC(=O)[C@H](NS(=O)(=O)CCc1ccccn1)C(C)C — recorded pIC50 = 8.80

###

Listed molecules paired with reported pIC50
molecular target: Human immunodeficiency virus type 1 protease (Human immunodeficiency virus 1, UniProt Q72874); assay: Inhibition of purified recombinant HIV-1 protease in a fluorogenic assay
pIC50: −log10 of the molar value.

molecule=CC(C)[C@H](NC(=O)N(C)Cc1nc2ccccc2[nH]1)C(=O)N[C@@H](Cc1ccccc1)[C@@H](O)[C@H](O)[C@H](Cc1ccccc1)NC(=O)[C@H](NC(=O)N(C)Cc1nc2ccccc2[nH]1)C(C)C valueobserved="> 9.00"
molecule=CC(C)[C@H](NC(=O)OCc1cccnc1)C(=O)N[C@@H](Cc1ccccc1)[C@@H](O)[C@H](O)[C@H](Cc1ccccc1)NC(=O)[C@H](NC(=O)OCc1cccnc1)C(C)C valueobserved="> 9.00"

Shifting focus to the molecule that follows.
Recorded result, CC(C)[C@H](NC(=O)NCc1ccccn1)C(=O)N[C@@H](Cc1ccccc1)C(O)[C@H](Cc1ccccc1)NC(=O)[C@H](NC(=O)NCc1ccccn1)C(C)C (stereo partly drawn) , pIC50: 8.00

###

IC50 for assorted compounds
molecular target: Human immunodeficiency virus type 1 protease (Human immunodeficiency virus 1, UniProt Q72874); assay: Inhibition of purified recombinant HIV-1 protease in a fluorogenic assay
Number only, in µM; omit the unit.

chemicalsmiles=CC(C)[C@H](NC(=O)/C=C/c1cccnc1)C(=O)N[C@@H](Cc1ccccc1)[C@@H](O)[C@@H](O)[C@H](Cc1ccccc1)NC(=O)[C@H](NC(=O)/C=C/c1cccnc1)C(C)C readoutname=IC50 valueobserved=0.0053
chemicalsmiles=CC(C)[C@H](NC(=O)CCN1CCOCC1)C(=O)N[C@@H](Cc1ccccc1)[C@@H](O)[C@@H](O)[C@H](Cc1ccccc1)NC(=O)[C@H](NC(=O)CCN1CCOCC1)C(C)C readoutname=IC50 valueobserved=0.023

Then there is this compound:
Reported IC50 for CC(C)[C@H](NC(=O)N(C)CCc1ccccn1)C(=O)N[C@@H](Cc1ccccc1)[C@@H](O)[C@@H](O)[C@H](Cc1ccccc1)NC(=O)[C@H](NC(=O)N(C)CCc1ccccn1)C(C)C was 0.022

###

IC50 for assorted compounds
molecular target: Human immunodeficiency virus type 1 protease (Human immunodeficiency virus 1, UniProt Q72874); assay: Inhibition of purified recombinant HIV-1 protease in a fluorogenic assay

See these solved cases before continuing.
compound=CC(C)[C@H](NC(=O)N(C)Cc1ccccn1)C(=O)N[C@@H](Cc1ccccc1)[C@H](O)[C@H](O)[C@H](Cc1ccccc1)NC(=O)[C@H](NC(=O)N(C)Cc1ccccn1)C(C)C valueobserved="< 1 nM"
compound=CC(C)[C@H](NC(=O)/C=C/c1ccccn1)C(=O)N[C@@H](Cc1ccccc1)[C@@H](O)[C@@H](O)[C@H](Cc1ccccc1)NC(=O)[C@H](NC(=O)/C=C/c1ccccn1)C(C)C valueobserved="< 1 nM"
compound=CC(C)[C@H](NC(=O)N(C)Cc1nc2ccccc2[nH]1)C(=O)N[C@@H](Cc1ccccc1)[C@@H](O)[C@@H](O)[C@H](Cc1ccccc1)NC(=O)[C@H](NC(=O)N(C)Cc1nc2ccccc2[nH]1)C(C)C valueobserved="< 1 nM"
compound=CC(C)[C@H](NC(=O)N(C)Cc1cscn1)C(=O)N[C@@H](Cc1ccccc1)[C@H](O)[C@@H](O)[C@H](Cc1ccccc1)NC(=O)[C@H](NC(=O)N(C)Cc1csc(N)n1)C(C)C valueobserved="< 1 nM"

Attention now shifts to the item below.
Just so you know, measured IC50 for CC(C)[C@H](NC(=O)OCc1ccncc1)C(=O)N[C@@H](Cc1ccccc1)C(O)[C@H](Cc1ccccc1)NC(=O)[C@H](NC(=O)OCc1ccncc1)C(C)C (stereo not given in full) came out at 26 nM

###

target: Human immunodeficiency virus type 1 protease (Human immunodeficiency virus 1); assay: Inhibition of purified recombinant HIV-1 protease in a fluorogenic assay
Below: a set of entries, each annotated with reported pIC50.
pIC50 field: float, defined as -log10 of concentration (mol/L).

compound="CC(C)[C@H](NS(=O)(=O)N(C)Cc1ccccn1)C(=O)N[C@@H](Cc1ccccc1)C(O)[C@H](Cc1ccccc1)NC(=O)[C@H](NS(=O)(=O)N(C)Cc1ccccn1)C(C)C (stereo not given in full)" targetsystem="Human immunodeficiency virus type 1 protease (Human immunodeficiency virus 1)" valueobserved=5.89

Continue with the compound presented below.
The recorded pIC50 for CC(C)[C@H](NC(=O)OCc1ccccn1)C(=O)N[C@@H](Cc1ccccc1)[C@@H](O)[C@H](Cc1ccccc1)NC(=O)[C@H](NC(=O)OCc1ccccc1)C(C)C is 8.52

###

biological target: Human immunodeficiency virus type 1 protease (Human immunodeficiency virus 1); assay: Inhibition of purified recombinant HIV-1 protease in a fluorogenic assay
readoutName: log10 of IC50 (log10 of the value in nM)
Values are log10 of IC50 in nM.

Solved entries (count: 4):
chemicalsmiles=CC(C)[C@H](NC(=O)N(C)CCc1ccccn1)C(=O)N[C@@H](Cc1ccccc1)[C@@H](O)[C@H](O)[C@H](Cc1ccccc1)NC(=O)[C@H](NC(=O)N(C)CCc1ccccn1)C(C)C targetsystem="Human immunodeficiency virus type 1 protease (Human immunodeficiency virus 1)" readoutname="log10 of IC50" valueobserved=0.72
chemicalsmiles=CC(C)[C@H](NC(=O)N(C)Cc1ccccn1)C(=O)N[C@@H](Cc1ccccc1)[C@@H](O)[C@@H](O)[C@H](Cc1ccccc1)NC(=O)[C@H](NC(=O)N(C)Cc1ccccn1)C(C)C targetsystem="Human immunodeficiency virus type 1 protease (Human immunodeficiency virus 1)" readoutname="log10 of IC50" valueobserved=0.22
chemicalsmiles=CC(C)[C@H](NS(=O)(=O)N(C)Cc1ccccn1)C(=O)N[C@@H](Cc1ccccc1)[C@@H](O)[C@H](O)[C@H](Cc1ccccc1)NC(=O)[C@H](NS(=O)(=O)N(C)Cc1ccccn1)C(C)C targetsystem="Human immunodeficiency virus type 1 protease (Human immunodeficiency virus 1)" readoutname="log10 of IC50" valueobserved=1.85
chemicalsmiles=CC(C)[C@H](NC(=O)N1CCN(Cc2ccccc2)CC1)C(=O)N[C@@H](Cc1ccccc1)[C@@H](O)[C@@H](O)[C@H](Cc1ccccc1)NC(=O)[C@H](NC(=O)N1CCN(Cc2ccccc2)CC1)C(C)C targetsystem="Human immunodeficiency virus type 1 protease (Human immunodeficiency virus 1)" readoutname="log10 of IC50" valueobserved=0.89

As a next step, examine the compound that follows.
log10 of IC50 in this record for CC(C)[C@H](NC(=O)OCc1ccncc1)C(=O)N[C@@H](Cc1ccccc1)[C@H](O)[C@H](O)[C@H](Cc1ccccc1)NC(=O)[C@H](NC(=O)OCc1ccncc1)C(C)C : 0.36

###

molecular target: Human immunodeficiency virus type 1 protease (Human immunodeficiency virus 1, UniProt Q72874); assay: Inhibition of purified recombinant HIV-1 protease in a fluorogenic assay
List of pIC50 values.
Scale note: pIC50 = -log10(concentration in M).

compound=CC(C)[C@H](NS(=O)(=O)CCc1ccncc1)C(=O)N[C@@H](Cc1ccccc1)[C@@H](O)[C@H](O)[C@H](Cc1ccccc1)NC(=O)[C@H](NS(=O)(=O)CCc1ccncc1)C(C)C valueobserved=7.62

# pIC50 (compound: CC(C)[C@H](NC(=O)OCCN1CCOCC1)C(=O)N[C@@H](Cc1ccccc1)C(O)[C@H](Cc1ccccc1)NC(=O)[C@H](NC(=O)OCCN1CCOCC1)C(C)C (stereo partly specified) ) is 6.74

What the record says about CC(C)[C@H](NC(=O)OCc1ccncc1)C(=O)N[C@@H](Cc1ccccc1)[C@@H](O)[C@@H](O)[C@H](Cc1ccccc1)NC(=O)[C@H](NC(=O)OCc1ccncc1)C(C)C : pIC50 is 8.77

So for CC(C)[C@H](NC(=O)C1Cc2ccccc2CN1)C(=O)N[C@@H](Cc1ccccc1)C(O)[C@H](Cc1ccccc1)NC(=O)[C@H](NC(=O)C1Cc2ccccc2CN1)C(C)C (stereo partly specified) , the logged pIC50 turned out to be 8.15

# compound CC(C)[C@H](NS(=O)(=O)N(C)Cc1ccccn1)C(=O)N[C@@H](Cc1ccccc1)[C@@H](O)[C@@H](O)[C@H](Cc1ccccc1)NC(=O)[C@H](NS(=O)(=O)N(C)Cc1ccccn1)C(C)C ; its pIC50 = 6.62

Form field pIC50, entry CC(C)[C@H](NC(=O)/C=C/c1cccnc1)C(=O)N[C@@H](Cc1ccccc1)C(O)[C@H](Cc1ccccc1)NC(=O)[C@H](NC(=O)/C=C/c1cccnc1)C(C)C (stereo partly specified) : 8.66

Per the record, CC(C)[C@H](NC(=O)N1CCOCC1)C(=O)N[C@@H](Cc1ccccc1)[C@H](O)[C@H](O)[C@H](Cc1ccccc1)NC(=O)[C@H](NC(=O)N1CCOCC1)C(C)C has pIC50 of 7.37

CC(C)[C@H](NC(=O)OCCN1CCOCC1)C(=O)N[C@@H](Cc1ccccc1)[C@@H](O)[C@@H](O)[C@H](Cc1ccccc1)NC(=O)[C@H](NC(=O)OCCN1CCOCC1)C(C)C yielded pIC50 of 7.70
